- Test system: CREC7
measurement-kind: MIC

Study these solved cases before continuing.
[
  {
    "smiles-notation": "CN(C)[C@@H]1C(O)=C(C(N)=O)C(=O)[C@@]2(O)C(O)=C3C(=O)c4c(O)cccc4[C@@](C)(O)[C@H]3C[C@@H]12",
    "experimental-value": "> 32 µg/mL"
  },
  {
    "smiles-notation": "CC(C)(O/N=C(\\C(=O)N[C@@H]1C(=O)N2C(C(=O)[O-])=C(C[n+]3ccccc3)CS[C@H]12)c1csc(N)n1)C(=O)O",
    "experimental-value": "> 32 µg/mL"
  }
]

Tell us which MIC value is on record for CC1(C)S[C@@H]2[C@H](NC(=O)[C@H](N)c3ccccc3)C(=O)N2[C@H]1C(=O)O
> 32 µg/mL
